Assay: Relative bioavailability / single dose PK, oral
Assay type: in vivo, BALB/c mice
Conditions: female, BALB/c, mouse, plasma; mice, 100 μg/g oral, after 15 min; read-out: level detected in mouse plasma
assay-metric: concentration at 15 min (ng/g)

[[record]]
molecule = "COc1cc(O)cc(/C=C/c2cc3ccccc3s2)c1 [SK-03-92]"
unit_text = "ng/g"
observed = 740


* * *

Assay: Relative bioavailability / single dose PK, oral
Format: in vivo, BALB/c mice
Settings: female, BALB/c, mouse, plasma; mice, oral, single dose 100 μg/g; read-out: AUCINF_obs (converted)
assay-metric: AUC(0-inf)

[[record]]
compound = "COc1cc(O)cc(/C=C/c2cc3ccccc3s2)c1 [SK-03-92]"
observed = "85.7 ng·h/mL"


* * *

Test: Relative bioavailability / single dose PK, oral
Type: in vivo, BALB/c mice
Details: female, BALB/c, mouse, plasma, po, 100 μg/g, mice, oral, single dose 100 μg/g; read-out: Tmax (converted)
assay-metric: Tmax (min)

[[record]]
molecule = "COc1cc(O)cc(/C=C/c2cc3ccccc3s2)c1 [SK-03-92]"
observed = 22


* * *

Test: Solubility in vehicles by HPLC
Format: physicochemical
Conditions: aqueous buffer; PBS; HPLC; read-out: Solubility in PBS
assay-metric: solubility

[[record]]
chemical_string = "COc1cc(O)cc(/C=C/c2cc3ccccc3s2)c1"
observed = "< 0.1 µg/mL"


* * *

Experiment: Relative bioavailability / single dose PK, oral
Assay type: in vivo, BALB/c mice
Details: female, BALB/c, mouse, plasma; mice, 100 μg/g oral, by 30 min; read-out: level detected in mouse plasma
assay-metric: concentration at 30 min (ng/g)

[[record]]
compound = "COc1cc(O)cc(/C=C/c2cc3ccccc3s2)c1 [SK-03-92]"
assay_metric = "concentration at 30 min"
observed = 126


* * *

Assay: Solubility in vehicles by HPLC
Type: physicochemical
Conditions: aqueous with cosolvent or surfactant or cyclodextrin; 20% Solutol HS 15/80% PBS; HPLC; read-out: Solubility in 20% Solutol HS 15/80% PBS
assay-metric: solubility

[[record]]
chemical_string = "COc1cc(O)cc(/C=C/c2cc3ccccc3s2)c1"
observed = "4600 µg/mL"


* * *

Assay: Single dose PK assay, ip
Assay type: in vivo, BALB/c mice
Conditions: female, BALB/c, mouse, plasma, 100 μg/g; mice, within 90 min of ip injection
assay-metric: concentration at 90 min

[[record]]
chemical_string = "COc1cc(O)cc(/C=C/c2cc3ccccc3s2)c1"
observed = "149 ng/mL"


* * *

Assay: Single dose PK assay, ip
Assay type: in vivo, BALB/c mice
Conditions: female, BALB/c, mouse, plasma, 100 μg/g; mice, 30 min after ip injection
assay-metric: concentration at 30 min (ng/mL)

[[record]]
compound = "COc1cc(O)cc(/C=C/c2cc3ccccc3s2)c1 [SK-03-92]"
unit_text = "ng/mL"
observed = 1640


* * *

Assay: Single dose PK assay, ip
Type: in vivo, BALB/c mice
Settings: female, BALB/c, mouse, plasma; mice, ip, single dose 100 μg/g; read-out: AUCINF_obs (converted)
assay-metric: AUC(0-inf) (ng·h/mL)

[[record]]
chemical_string = "COc1cc(O)cc(/C=C/c2cc3ccccc3s2)c1"
unit_text = "ng·h/mL"
observed = 1170


* * *

Test: Relative bioavailability / single dose PK, oral
Format: in vivo, BALB/c mice
Conditions: female, BALB/c, mouse, po, 100 μg/g; mice, orally administered, plasma
assay-metric: Cmax (ng/mL)

[[record]]
chemical_string = "COc1cc(O)cc(/C=C/c2cc3ccccc3s2)c1"
unit_text = "ng/mL"
observed = 370


* * *

Test: Solubility in vehicles by HPLC
Assay type: physicochemical
Settings: organic solvent or mixture; PEG 400; HPLC; read-out: Solubility in PEG 400
assay-metric: solubility (µg/mL)

[[record]]
chemical_string = "COc1cc(O)cc(/C=C/c2cc3ccccc3s2)c1"
assay_metric = "solubility"
unit_text = "µg/mL"
observed = 9200


* * *

Experiment: Single dose PK assay, ip
Assay type: in vivo, BALB/c mice
Conditions: female, BALB/c, mouse, plasma; mice, ip, single dose 100 μg/g
assay-metric: Tmax

[[record]]
chemical_string = "COc1cc(O)cc(/C=C/c2cc3ccccc3s2)c1"
assay_metric = "Tmax"
observed = "30 min"


* * *

Test: Relative bioavailability / single dose PK, oral
Format: in vivo, BALB/c mice
Details: female, BALB/c, mouse, plasma, po, 100 μg/g, mice, oral, single dose 100 μg/g; read-out: Half-Life
assay-metric: half-life (min)

[[record]]
compound = "COc1cc(O)cc(/C=C/c2cc3ccccc3s2)c1 [SK-03-92]"
assay_metric = "half-life"
observed = 30


* * *

Assay: Two-week multi-dose oral PK study
Format: in vivo
Details: BALB/c, mouse, plasma, 100 μg/g; mice, two-week oral administration, after 15 min
assay-metric: concentration at 15 min (ng/mL)

[[record]]
chemical_string = "COc1cc(O)cc(/C=C/c2cc3ccccc3s2)c1"
assay_metric = "concentration at 15 min"
unit_text = "ng/mL"
observed = 144

